target system: USP28 (USP28-5(1-1077)-TEV-6*His; LifeSensors) (Homo sapiens)
Construct: construct USP28 (USP28-5(1-1077)-TEV-6*His; LifeSensors); TEV cleavage site (C); 6xHis (C); purchased LifeSensors
Sequence (Q96RU2 1-1077): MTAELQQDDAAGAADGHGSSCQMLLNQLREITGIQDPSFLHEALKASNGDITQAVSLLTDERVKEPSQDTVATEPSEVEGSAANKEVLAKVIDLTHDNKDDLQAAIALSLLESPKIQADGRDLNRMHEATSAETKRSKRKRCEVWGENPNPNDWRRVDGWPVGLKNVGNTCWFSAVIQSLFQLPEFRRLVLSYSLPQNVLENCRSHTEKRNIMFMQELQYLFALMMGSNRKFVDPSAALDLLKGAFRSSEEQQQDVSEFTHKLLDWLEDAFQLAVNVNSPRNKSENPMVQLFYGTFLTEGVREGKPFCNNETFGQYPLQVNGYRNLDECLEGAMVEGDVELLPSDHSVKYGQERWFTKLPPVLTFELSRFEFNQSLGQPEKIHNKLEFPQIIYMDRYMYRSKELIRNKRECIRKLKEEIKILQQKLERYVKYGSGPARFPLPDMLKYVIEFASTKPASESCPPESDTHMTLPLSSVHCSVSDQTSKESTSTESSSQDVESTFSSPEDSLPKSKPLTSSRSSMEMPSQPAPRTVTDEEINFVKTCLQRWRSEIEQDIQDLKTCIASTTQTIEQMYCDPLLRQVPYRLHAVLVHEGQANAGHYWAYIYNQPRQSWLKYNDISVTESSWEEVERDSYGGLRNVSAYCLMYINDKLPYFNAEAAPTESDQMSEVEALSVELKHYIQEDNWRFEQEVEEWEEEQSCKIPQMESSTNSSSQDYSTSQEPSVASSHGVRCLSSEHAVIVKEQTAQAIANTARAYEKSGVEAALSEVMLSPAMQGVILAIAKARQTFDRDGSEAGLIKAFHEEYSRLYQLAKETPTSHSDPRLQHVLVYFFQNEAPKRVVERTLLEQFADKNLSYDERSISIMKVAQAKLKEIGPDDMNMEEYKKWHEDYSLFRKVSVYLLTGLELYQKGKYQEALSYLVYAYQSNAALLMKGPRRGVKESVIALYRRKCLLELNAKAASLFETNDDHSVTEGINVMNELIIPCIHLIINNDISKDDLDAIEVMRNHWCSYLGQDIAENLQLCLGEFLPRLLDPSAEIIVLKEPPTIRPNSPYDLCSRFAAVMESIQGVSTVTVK
procedure details: Ubiquitin-Rhodamine 110 Assay for USP28 Activity, Example A-1(b)
Format: biochemical
condition summary: 75 pM enzyme, 25 nM Ub-Rh110, 384-well follow-up format
reported property: Assay A-1(b) (IC50 range)

>  <compound>
CCn1ccc2cc(C(=O)NCCc3cc(F)c(N4CC5CCC(C4)N5)cc3F)nnc21 [Example 4-1]

>  <result>
+++ (“+++”: 0.05-0.2 μM)

$$$$
>  <compound>
CCn1ccc2cc(C(=O)NCCc3ccc(N4CC5CCC(C4)N5)c(F)c3)cnc21 [Example 1-10]

>  <result>
+++ (“+++”: 0.05-0.2 μM)

$$$$
>  <compound>
CCn1ccc2cc(C(=O)NCCc3cc(F)c(N4CCNCC4)cc3F)cnc21 [Example 1-7]

>  <result>
+++ (“+++”: 0.05-0.2 μM)

$$$$

====

target system: USP28 (USP28-5(1-1077)-TEV-6*His; LifeSensors) (Homo sapiens, UniProt Q96RU2)
Construct: construct USP28 (USP28-5(1-1077)-TEV-6*His; LifeSensors); TEV cleavage site (C); 6xHis (C); purchased LifeSensors
procedure details: Ubiquitin-Rhodamine 110 Assay for USP28 Activity, Example A-1(b)
Type: biochemical
condition summary: 75 pM enzyme, 25 nM Ub-Rh110, 384-well follow-up format
reported property: Assay A-1(b) (IC50 range)

>  <molecule>
Nc1c(C(=O)NCCc2ccc(N3CCNCC3)cc2)cnc2[nH]ccc12

>  <result>
+ (“+”: 2-10 μM)

$$$$
>  <molecule>
CCn1cc(Cl)c2cc(C(=O)NCCc3ccc(N4CCNCC4)cc3)cnc21

>  <result>
+++ (“+++”: 0.05-0.2 μM)

$$$$
>  <molecule>
CCn1ccc2cc(C(=O)NCCc3ccc(N4CCNCC4)cc3)cnc21

>  <result>
+++ (“+++”: 0.05-0.2 μM)

$$$$
>  <molecule>
CCn1ccc2cc(C(=O)NCCc3cc(F)c(N4CC5CCC(C4)N5)cc3F)cnc21

>  <result>
+++ (“+++”: 0.05-0.2 μM)

$$$$
>  <molecule>
CCn1ccc2cc(C(=O)NC[C@H](C)c3cc(F)c(N4CCNCC4)cc3F)cnc21 (single isomer, unassigned)

>  <result>
+ (“+”: 2-10 μM)

$$$$
>  <molecule>
CCn1ccc2cc(C(=O)NC[C@@H](C)c3cc(F)c(N4CC5CCC(C4)N5)cc3F)nnc21 (single isomer, unassigned)

>  <result>
++ (“++”: 0.2-2 μM)

$$$$
>  <molecule>
CCn1ccc2cc(C(=O)NC[C@@H](C)c3cc(F)c(N4CCNCC4)cc3F)cnc21 (single isomer, unassigned)

>  <result>
++ (“++”: 0.2-2 μM)

$$$$
>  <molecule>
CCn1cc(Cl)c2cc(C(=O)NCCc3cc(F)c(N4CC5CCC(C4)N5)cc3F)nnc21

>  <result>
+++ (“+++”: 0.05-0.2 μM)

$$$$
>  <molecule>
CCn1ccc2cc(C(=O)NC[C@@H](C)c3cc(F)c(N4CC5CCC(C4)N5)cc3F)cnc21 (single isomer, unassigned)

>  <result>
++ (“++”: 0.2-2 μM)

$$$$
>  <molecule>
CCn1ccc2cc(C(=O)NC[C@H](C)c3cc(F)c(N4CC5CCC(C4)N5)cc3F)cnc21 (single isomer, unassigned)

>  <result>
++ (“++”: 0.2-2 μM)

$$$$
>  <molecule>
CCn1ccc2cc(C(=O)NC[C@H](C)c3cc(F)c(N4CC5CCC(C4)N5)cc3F)nnc21 (single isomer, unassigned)

>  <result>
++ (“++”: 0.2-2 μM)

$$$$
>  <molecule>
O=C(NCCc1ccc(N2CCNCC2)cc1)c1cnc2c(ccn2CC(F)(F)F)c1

>  <result>
+++ (“+++”: 0.05-0.2 μM)

$$$$
>  <molecule>
O=C(NCCc1ccc(N2CCNCC2)cc1)c1cnc2[nH]ccc2c1

>  <result>
+ (“+”: 2-10 μM)

$$$$
>  <molecule>
Cn1ccc2cc(C(=O)NCCc3ccc(N4CCNCC4)cc3)cnc21

>  <result>
++ (“++”: 0.2-2 μM)

$$$$

====

# pIC50 per record follows
target system: USP25 (USP25-His6) (Homo sapiens)
Sequence (Q9UHP3 whole entry): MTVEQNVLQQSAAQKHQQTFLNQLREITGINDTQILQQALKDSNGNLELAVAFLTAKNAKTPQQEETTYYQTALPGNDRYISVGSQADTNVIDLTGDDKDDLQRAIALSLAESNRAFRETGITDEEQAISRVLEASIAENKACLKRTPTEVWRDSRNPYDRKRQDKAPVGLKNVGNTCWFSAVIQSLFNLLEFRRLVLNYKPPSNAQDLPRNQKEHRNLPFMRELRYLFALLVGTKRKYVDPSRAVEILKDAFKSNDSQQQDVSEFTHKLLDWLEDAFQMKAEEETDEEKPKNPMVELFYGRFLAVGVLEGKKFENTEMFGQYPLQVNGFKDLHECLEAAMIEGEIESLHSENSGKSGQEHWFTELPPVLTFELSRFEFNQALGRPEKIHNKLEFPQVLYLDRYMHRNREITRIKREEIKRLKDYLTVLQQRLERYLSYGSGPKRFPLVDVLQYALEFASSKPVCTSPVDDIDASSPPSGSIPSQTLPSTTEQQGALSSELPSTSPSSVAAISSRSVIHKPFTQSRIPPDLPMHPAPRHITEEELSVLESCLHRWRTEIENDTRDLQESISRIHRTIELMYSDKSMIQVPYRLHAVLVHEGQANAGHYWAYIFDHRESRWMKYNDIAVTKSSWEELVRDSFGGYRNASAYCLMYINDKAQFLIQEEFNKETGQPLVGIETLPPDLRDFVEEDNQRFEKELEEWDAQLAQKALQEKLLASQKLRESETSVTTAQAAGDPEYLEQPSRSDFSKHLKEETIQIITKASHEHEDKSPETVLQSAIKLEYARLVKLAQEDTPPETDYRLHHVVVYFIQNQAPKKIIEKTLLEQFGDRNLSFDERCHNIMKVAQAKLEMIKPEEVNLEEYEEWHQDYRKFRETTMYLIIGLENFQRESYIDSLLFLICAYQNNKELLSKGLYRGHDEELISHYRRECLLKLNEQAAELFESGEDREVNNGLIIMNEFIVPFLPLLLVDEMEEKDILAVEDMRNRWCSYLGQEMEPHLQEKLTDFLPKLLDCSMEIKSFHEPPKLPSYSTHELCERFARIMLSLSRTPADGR
pIC50: −log10 of the molar value.
reported property: pIC50

>  <compound>
CCn1ccc2cc(C(=O)NC[C@H](C)c3cc(F)c(N4CC5CCC(C4)N5)cc3F)nnc21 (single isomer, unassigned) [Example 4-2]

>  <result>
5.70 to 6.70

$$$$
>  <compound>
O=C(NCCc1ccc(N2CCNCC2)cc1)c1cnc2c(ccn2CC(F)(F)F)c1 [Example 1-8]

>  <result>
6.70 to 7.30

$$$$
>  <compound>
CCn1ccc2cc(C(=O)NC[C@@H](C)c3cc(F)c(N4CC5CCC(C4)N5)cc3F)nnc21 (single isomer, unassigned) [Example 4-3]

>  <result>
5.70 to 6.70

$$$$
>  <compound>
CCn1ccc2cc(C(=O)NCCc3ccc(N4CC5CCC(C4)N5)c(F)c3)cnc21 [Example 1-10]

>  <result>
5.70 to 6.70

$$$$
>  <compound>
CCn1ccc2cc(C(=O)NCCc3ccc(N4CC5CCC(C4)N5)cc3)cnc21 [Example 1-6]

>  <result>
6.70 to 7.30

$$$$
>  <compound>
CCn1ccc2cc(C(=O)NC[C@@H](C)c3cc(F)c(N4CCNCC4)cc3F)cnc21 (single isomer, unassigned) [Example 2-1]

>  <result>
5.70 to 6.70

$$$$
>  <compound>
O=C(NCCc1ccc(N2CCNCC2)cc1)c1cnc2[nH]ccc2c1 [Example 1-2]

>  <result>
5.70 to 6.70

$$$$
>  <compound>
CCn1cc(Cl)c2cc(C(=O)NCCc3cc(F)c(N4CC5CCC(C4)N5)cc3F)nnc21 [Example 4-4]

>  <result>
6.70 to 7.30

$$$$
>  <compound>
CCn1ccc2cc(C(=O)NCCc3cc(F)c(N4CC5CCC(C4)N5)cc3F)nnc21 [Example 4-1]

>  <result>
5.70 to 6.70

$$$$
>  <compound>
CCn1cc(Cl)c2cc(C(=O)NCCc3ccc(N4CCNCC4)cc3)cnc21 [Example 3-1]

>  <result>
6.70 to 7.30

$$$$
>  <compound>
CCn1ccc2cc(C(=O)NCCc3cc(F)c(N4CC5CCC(C4)N5)cc3F)cnc21 [Example 1-1]

>  <result>
6.70 to 7.30

$$$$
>  <compound>
CCn1ccc2cc(C(=O)NC[C@H](C)c3cc(F)c(N4CC5CCC(C4)N5)cc3F)cnc21 (single isomer, unassigned) [Example 2-3]

>  <result>
5.70 to 6.70

$$$$
